Measured values drawn from ChEMBL document CHEMBL1157539 for this set.

Tested on: HepG2
assayText: GSK_TCMDC: Percent inhibition of human HepG2 cell line. Test compounds present at 10uM.
Type: functional
readoutKind: Inhibition
Include the unit after the number when you answer.

Q: Sample Cc1cc(NC(=O)c2ccc(S(=O)(=O)N(Cc3ccccc3)C(C)C)cc2)no1 — what was its Inhibition?
A: 0%

Q: Next up: O=C(Nc1ccc(Cn2nc(Cl)c(N3CCCNCC3)cc2=O)cc1)c1ccc(-c2ccccc2)cc1.O=C(O)C(F)(F)F
A: 93%

Q: Next up: CCCc1cc(=O)[nH]c(-n2nc(C)cc2NC(=O)C(CC)c2ccccc2)n1 (centres undefined)
A: 41%

Q: Next up: Cn1cc(C2CCN(CCCCNC(=O)c3ccc(C(=O)Nc4ccc(C#N)cc4)cc3)CC2)c2ccccc21
A: 16%

Q: Next up: COc1ccc(NC(C)C(=O)Nc2ccc(Br)cc2)cc1S(=O)(=O)N1CCCCC1 (centres undefined)
A: 2%

Q: Next up: COc1ccccc1N1CCN(c2cccc(F)c2C#N)CC1
A: 0%

Q: Next up: Cn1c(Nc2cc(C(C)(C)C)on2)nc2cc(Nc3ccnc(Nc4cccc(S(=O)(=O)N5CCOCC5)c4)n3)ccc21
A: 32%

Q: Next up: COc1ccc2ncc(F)c(CCN3CCC(NCc4cc(Br)c5c(c4)OCCO5)CC3)c2n1.Cl
A: 26%

Q: Next up: O=C(N[C@@H](Cc1ccccc1)C(=O)NC1CCCCC1)c1ccc(O)c(-c2ccc(Cl)c(Cl)c2)c1
A: 0%

Q: Next up: CCN(CC)CCN(Cc1ccc(-c2ccc(C(F)(F)F)cc2)cc1)C(=O)Cn1c(CCC2CCCCC2)nc(=O)c2ccccc21.O=C(O)C(O)C(O)C(=O)O
A: 32%

Q: Next up: NS(=O)(=O)c1cncc(-c2ccc3nccc(-c4cn[nH]c4)c3n2)c1
A: 33%

Q: Next up: COc1cc(NCCCCCNc2cc(Cl)nc3ccccc23)nc2ccccc12
A: 17%

Q: Next up: CN(C)c1ccc(NC(=O)Nc2ccnc3ccc(Br)cc23)cc1.Cl
A: 0%

Q: Next up: CCN(CCCN1CCCCC1)c1cc(C)nc(Nc2ccc(Cl)c(C(F)(F)F)c2)n1.O=C(O)C(F)(F)F
A: 43%

Q: Next up: CC(NC(C)c1cccc(Cl)c1)C(=O)Nc1cc(C(F)(F)F)ccc1N1CCOCC1 (centres undefined)
A: 30%

Q: Next up: CNCCNCc1cccc(-c2ccc(-c3nc4ccccc4[nH]3)s2)c1.O=C(O)C(F)(F)F
A: 8%

Q: Next up: CCN(CCC1(c2ccc(Cl)c(Cl)c2)CN(C(=O)c2cc(OC)c(OC)c(OC)c2)CCO1)C1CC2c3ccccc3CC21 (centres undefined)
A: 26%

Q: Next up: Cn1c(Nc2cc(C(C)(C)C)on2)nc2cc(Nc3ccnc(Nc4ccc(CS(C)(=O)=O)cc4)n3)ccc21
A: 37%

Q: Next up: CCOCc1cnc(C)nc1CNC(=O)c1c(C)[nH]c2ccc(C)cc12
A: 8%

====

Assignment: determine reported Inhibition for the given compounds.
System: HepG2
assayText: GSK_TCMDC: Percent inhibition of human HepG2 cell line. Test compounds present at 10uM.
Type: functional
Please respond with the number in % and leave the unit unwritten.

Q: Sample CS(=O)(=O)Cc1cccc(Nc2ncc(Cl)c(Nc3cccnc3C(N)=O)n2)c1.Cl — what was its Inhibition?
A: 56

Q: Next up: N#Cc1cc(C(=O)c2cc(Br)ccc2O)cn(C2CCCCC2)c1=O
A: 3

Q: Next up: CCOc1c(CNCCCNc2cc(O)c3ccccc3n2)cc(I)cc1OC
A: 0

Q: Next up: COc1ccc(-c2ccc(NC(=O)c3ccc(Cl)cc3)cc2)cc1CN1CCC(O)CC1.O=C(O)C(F)(F)F
A: 20

Q: Next up: COc1ccc(C2CC(=O)C3=C(C2)NC(C)=C(C(=O)OC(C)C)C3c2ccccc2F)cc1OC (centres undefined)
A: 14

Q: Next up: O=C(Nc1ccc(-c2cccc(-c3nc4cc(C(F)(F)F)ccc4[nH]3)c2)cc1)Nc1ccc(F)c(F)c1F
A: 58

Q: Next up: CS(=O)(=O)c1ccc(-n2nc(C(F)(F)F)cc2-c2ccc(C=NOCC(=O)O)o2)cc1
A: 0

Q: Next up: CC(C)(C)c1ccc(CN2CCCCC(NC(=O)c3cc(-c4cccc(F)c4)cs3)C2)cc1.O=C(O)C(F)(F)F (centres undefined)
A: 8

Q: Next up: COc1ccc2nc(N3CCNCC3)nc(NCCCc3ccccc3)c2c1.Cl
A: 31

Q: Next up: O=C(/C=C/c1ccc(Cl)c(Cl)c1)NCCCCCN1CCC(NS(=O)(=O)c2cc(Cl)cc(Cl)c2)CC1
A: 7

Q: Next up: COc1ccc(CNCc2cccc(-c3cccc(-c4nc5cccc(C)c5[nH]4)c3)c2)cc1.O=C(O)C(F)(F)F
A: 31

Q: Next up: CC(=NNC(S)=Nc1ccccc1Cl)c1ccccn1
A: 69

Q: Next up: CCN(CC)CCNc1ccc(Nc2ccnc3cc4ccccc4cc23)cc1
A: 36

Q: Next up: COc1cc(F)c2nccc([C@@H](O)CN3CCC(NCc4ccc5c(n4)NC(=O)CS5)CC3)c2c1
A: 23

Q: Next up: CCCCCCCCc1nc(C)c(Br)c(O)c1Br
A: 2

Q: Next up: O=[N+]([O-])c1cccc(C=NNc2nc(=Nc3ccccc3)[nH]c(=Nc3ccccc3)[nH]2)c1
A: 10

Q: Next up: Cl.FC(F)(F)c1cc(Nc2ccc(Oc3ccccc3)cc2)c2cc(-c3ccncc3)ccc2n1
A: 0

Q: Next up: COc1ccc(NC(=O)N2CCN(CCCCCNC(=O)/C=C/c3ccc(C(F)(F)F)cc3)CC2)cc1Cl
A: 25

Q: Next up: O=C(Nc1ccc2c(c1)OCO2)c1cc(-c2cccnc2)nc2ccc(Cl)cc12
A: 9
